Hello, the source for this data is the supplement of paper PMC12764529, in case you need it.

Experiment: folding stability dG unfold (combined trypsin and chymotrypsin); higher = more stable
Quantity kind: folding stability dG unfold (kcal/mol)

1) SAGGMRLVFVTETPEEAEEIARELAELFPDFELEAEVREEEVLVEVPETGEVKRRPVYVLVIELRPKSAGGS [r16_828_TrMRF] ... 4.41
2) SAGGSAGGSDKIKELAKKLKIVKVEKKKDGKYILLVKDEKTGKLYEIEVDLKTNKVTIKELKPSAGGSAGGS [r12_944_TrROS_Hall] ... 3.82
3) SAGGMYKARIEVKNPEEVKKKIKELGLEFEIETRPDGSVDIYFPPEYVDKLIKAFPGEKIEIEPIPDESAGG [r13_261_TrMRF] ... 3.29
